Tested on: ZR-75-1
Test: viability inhibition at highest dose (% inhibition); higher = more growth inhibition
Details: 4-OH-tamoxifen in medium 1 µM; 72 h
Label 1 when viability inhibition at highest dose is strictly below 20; at or above that, label -1.

compound	class_assignment
Clc1ccc(C(c2ccccc2Cl)C(Cl)Cl)cc1 (stereo not drawn) [Mitotane] (drug 10000 nM)	1
CC(C)C[C@H](NC(=O)[C@@H](COC(C)(C)C)NC(=O)[C@H](Cc1ccc(O)cc1)NC(=O)[C@H](CO)NC(=O)[C@H](Cc1c[nH]c2ccccc12)NC(=O)[C@H](Cc1cnc[nH]1)NC(=O)[C@@H]1CCC(=O)N1)C(=O)N[C@@H](CCCNC(=N)N)C(=O)N1CCC[C@H]1C(=O)NNC(N)=O [Goserelin acetate] (drug 10000 nM)	1
COc1cc(Nc2ncc(F)c(Nc3ccc4c(n3)N(COP(=O)(O)O)C(=O)C(C)(C)O4)n2)cc(OC)c1OC (drug 10000 nM)	-1

## Task Report whether reported viability inhibition at highest dose is lower than 20 (strictly) for Cn1cc(CNCC2CCN(c3ncc(C(=O)NO)cn3)CC2)c2ccccc21 (drug 1000 nM)
## Result -1

## Task Report whether reported viability inhibition at highest dose is lower than 20 (strictly) for CCC/C=C/C=C/C(=O)O[C@H]1/C(=C/C(=O)OC)C[C@H]2C[C@H]([C@@H](C)O)OC(=O)C[C@H](O)C[C@@H]3C[C@H](OC(C)=O)C(C)(C)[C@](O)(C[C@@H]4C/C(=C/C(=O)OC)C[C@H](/C=C/C(C)(C)[C@]1(O)O2)O4)O3 [Bryostatin 1] (drug 100 nM)
## Result 1

## Task Report whether reported viability inhibition at highest dose is lower than 20 (strictly) for C=C1C[C@@H]2[C@H](CC[C@]3(C)C(=O)CC[C@@H]23)[C@@]2(C)C=CC(=O)C=C12 [Exemestane] (drug 10000 nM)
## Result 1

## Task Report whether reported viability inhibition at highest dose is lower than 20 (strictly) for CC(=O)Nc1ccc(C(=O)Nc2ccccc2N)cc1 [Tacedinaline (CI-994)] (drug 1000 nM)
## Result 1
